Molecular target: IL-17A/A (Homo sapiens)
Construct: purchased Genscript Z03228
Sequence (Q16552 24-155): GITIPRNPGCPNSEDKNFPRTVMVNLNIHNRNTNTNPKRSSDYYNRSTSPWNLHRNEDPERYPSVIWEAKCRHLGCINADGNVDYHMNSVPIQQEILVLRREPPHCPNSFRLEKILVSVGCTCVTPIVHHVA
Assay: IL-17A/A HEK-Blue Cell Assay
Assay type: cell-based
Details: HEK-Blue IL-17A reporter cell line, SEAP readout at A630, 20 hours incubation with IL-17A/A; top concentration 10 uM, 1 uM or 0.3 uM; read-out: IL-17A/A inhibition (pIC50) (converted)
ENDPOINT_LABEL: IC50

- COMPOUND: "CCC(=O)N[C@@H](C(=O)N1CCN(C)CC1)[C@@H](C)c1ccc(NC(=O)[C@@H](NC(=O)c2ccnn2CC)C2CCC(F)(F)CC2)c(F)c1 [Compound 240]"
  IC50: "10 to 100 nM"

Now turn to the next compound.
Input: Look up and report measured IC50 for this entry: CCC(=O)N[C@@H](C(=O)N1CCN(C)CC1)[C@@H](C)c1ccc(NC(=O)[C@@H](NC(=O)C(=O)c2ccc(NS(C)(=O)=O)nc2)C2CCCCCC2)c(F)c1 [Compound 626]
Output: 100 to 10000 nM

Each recorded value in this set is attributed to patent US12421212B2.
